Values were extracted from patent US20120171209A1.

TGT: cynomolgus IL-6R used in Biacore (cynomolgus monkey)
MEASUREMENT_PROTOCOL: Biacore, periplasmic extract
PARAMETER: koff (s⁻¹)

{"columns": ["BINDER", "koff, s⁻¹"],
 "data": [
  ["IL6RPMP103A2 (VHH) VHH: EVQLVESGGGLVQPGGSLRLSCAASGSIFSINTMGWYRQVPGKQRELVATVRSGSITNYADSVQDQFTITRDIDENTVYLQMNSLKPEDTAVYYCLTRASVPGRGYQDYWGQGTQVTVSS", 0.001],
  ["IL6RPMP104E4 (VHH, family 8; also called PMP104E04; IL6R104E4) VHH: EVQLVESGGGTVQAGGSLKLSCAASGRTFTNYAMGWFRQAPGKEREFVAAIAYATHFADSVKGRFTISRGNAKNTVYLQMNSLKPEDTAVYYCAADLSLSKMVSKITSDMDYWGKGTLVTVSS", 0.00045]
]}

a. IL6RPMP103A4 (VHH) VHH: EVQLVESGGGLVQPGGSLRLSCAASGSIFSINTMGWYRQVPGKQRELVATVRSGSITNYADSVQDRFTITRDIDENTVYLQMNSLKPEDTAVYYCLTRASVPGRGYQDYWGQGTQVTVSS
b. IL6RPMP103A5 (VHH) VHH: EVQLVESGGGLVQAGDSLRLSCVASGLPFSTLHMGWFRQAPGKEHESVSAISSDGGSEYYAGSVKGRFTISRDNAKNTVYLQMNSLKPEDTAVYYCAADPRRIGANIKYSDYWGQGTQVTVSS
## Task Determine, for a and b , which has the greater value of koff. // caller expects the label of the chosen entry
## Result b
(b: 0.00074 s⁻¹, a: 0.00045 s⁻¹)

A. IL6RPMP100G11 (VHH, family 4; also called IL6R100G11) VHH: EVQLVESGGGLVQAGGSLRLSCAASGRGFSPYTMGWFRQAPGKERVFVAGISWSTGIAHYTDSVKGRFTISRDNAKNTGSLQMNSLKPEDTAVYYCAVVQTTKGNYDYWGQGTQVTVSS
B. IL6RPMP108C10 (VHH) VHH: EVQLVESGGGLVQPGGSLRLSCTASGRTFSDYDMGWFRQAPGKERECVAVIDTNGDNTLTVGSVKGRFAISRDNAKNTVYLQMNSLLPEDTAVYTCAAGAWSSLRSTAANYWGQGTQVTVSS
## Task Determine, for A and B , which has the greater value of koff. // caller expects the label of the chosen entry
## Result B

P. IL6RPMP105E1 (VHH, family 7; also called PMP105E01; IL6R105E1) VHH: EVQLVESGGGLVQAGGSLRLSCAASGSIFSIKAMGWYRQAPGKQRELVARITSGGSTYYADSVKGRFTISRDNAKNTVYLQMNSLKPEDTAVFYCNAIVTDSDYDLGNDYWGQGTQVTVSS
Q. IL6RPMP103H9 (VHH, family 13; also called PMP103H09; IL6R103H9) VHH: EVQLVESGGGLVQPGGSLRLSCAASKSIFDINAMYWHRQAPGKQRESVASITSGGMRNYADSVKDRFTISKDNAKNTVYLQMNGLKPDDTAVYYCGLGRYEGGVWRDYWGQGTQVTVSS
## Task For the pair P and Q , which entry has the numerically smaller recorded koff? // caller expects the label of the chosen entry
## Result P
